Test system: SN12C renal
Test: NCI tumour cell line growth inhibition, 48 h
For each record, write down the corresponding TGI.

Solved entries (count: 4):
Compound	TGI
COc1c(C)c2c(c(C)c1Cl)Oc1c(C=O)c(O)c(Cl)c(C)c1C(=O)O2	> 100 µM
COc1ccc(CNc2c3ccccc3nc3ccccc23)cc1OC	8.54 µM
CC(=O)OC1CC2c3cccc4c3C(CC2N(C)C1=O)CN4C(=O)c1ccccc1 (stereo not given)	56.8 µM
CC1=NC(=Cc2ccc(O)cc2)C(=O)N1n1c(-c2ccccc2)nc2ccccc2c1=O	> 100 µM

Report TGI for every entry below.
1. COC(=O)C(=C/c1ccc(OC)cc1)/C(C(=O)O)=C(/C)c1ccccc1
2. COc1ccccc1NC(=O)C1=C(C)NC(C)=C(C(=O)Nc2ccccc2OC)C1c1ccc([N+](=O)[O-])cc1
3. CC(=O)Oc1ccccc1C(=O)N=C1[Se]CCCN1C(=O)c1ccccc1OC(C)=O
4. CCN1c2nc3ccccc3nc2N(CC)c2nc3ccccc3nc21
5. CC1(C)OCC2OC3(c4nc(C#N)c(N)o4)OC(C)(C)OC3C2O1 (stereo not given)
6. Clc1ccc(-c2c(C3=NCCN3)nnn2-c2ccc(Cl)cc2)cc1

Ans.
> 100 µM
> 100 µM
24.7 µM
> 100 µM
> 100 µM
> 100 µM

---

For each record, write down the corresponding TGI.
System: SF-268 CNS
Test: NCI tumour cell line growth inhibition, 48 h

Solved entries (count: 5):
Compound	Target Entity	Test Readout	Reading
CCOC(=O)C1N(S(=O)(=O)c2ccc(C)cc2)CCC12C(c1ccc(OC)cc1)NC1CCCCC12 (stereo unspecified)	SF-268 CNS	TGI	> 100 µM
CC(=O)OC1CC2c3cccc4c3C(CC2N(C)C1=O)CN4C(=O)c1ccccc1 (stereo unspecified)	SF-268 CNS	TGI	> 100 µM
Cc1c[n+](Cc2ccc3ccccc3c2)cn1Cc1ccc2ccccc2c1	SF-268 CNS	TGI	2.88 µM
CCCS(=O)(=O)Nc1ccc(Nc2c3ccccc3nc3ccccc23)c(OC)c1	SF-268 CNS	TGI	8.31 µM
O=C(C(=O)N1CCc2ccccc21)c1c[nH]c2ccccc12	SF-268 CNS	TGI	> 10 µM

Report TGI for every entry below.
1. COc1ccc2c(c1)CN1C(=N2)CSC1c1cc([N+](=O)[O-])ccc1Cl (stereo unspecified)
2. Cc1ccc(N(CSc2ccc(Cl)cc2)CSc2ccc(Cl)cc2)cc1
3. O=C(O)c1ccc(NNc2cc(=O)[nH]c(=O)[nH]2)cc1
4. CC1=C(C(=O)Nc2c(C)cccc2C)C(c2ccccc2Cl)C(C(=O)Nc2c(C)cccc2C)=C(C)N1

Ans.
> 100 µM
12.4 µM
> 100 µM
> 100 µM

Report TGI for every entry below.
1. CC(=O)c1sc2c(c1OC(=O)c1cccs1)c(=O)n(-c1ccccc1)c(=S)n2-c1ccccc1
2. Cc1[nH]n(-c2cccc(Cl)c2)c(=O)c1/C=C1\C=Nc2ccc(Br)cc21
3. N#Cc1c(-c2ccccc2)[nH]c2ccccc2c1=O

Ans.
1. 51.5 µM
2. 26.4 µM
3. > 100 µM

---

Test system: SK-OV-3 ovarian
Test: NCI tumour cell line growth inhibition, 48 h
Test Readout: TGI

Molecule	Test Readout	Reading
C/C(=N\Nc1cc(CN2CCCC2)c(-c2ccc(Cl)cc2)nn1)C(=O)O	TGI	> 100 µM
CC12CCC(C(=O)OC1=O)C2(C)C (configuration not stated)	TGI	> 100 µM
COc1cc2c(cc1OCc1ccccc1)CNCC2	TGI	> 100 µM
CC(=O)c1sc2c(c1OC(=O)c1cccs1)c(=O)n(-c1ccccc1)c(=S)n2-c1ccccc1	TGI	52 µM
C#CCn1ncc2c(SCc3ccccc3)ncnc21	TGI	> 100 µM

Report TGI for every entry below.
1. CCOC(=O)C1N(S(=O)(=O)c2ccc(C)cc2)CCC12C(c1ccc(OC)cc1)NC1CCCCC12 (configuration not stated)
2. Cc1cn2c(=O)c3ccccc3nc2s1
3. CCN(CC)CCn1nc(N)c2nc3cc(Cl)ccc3nc21
4. O=C1c2cc3c(cc2CC12Cc1cc4c(cc1C2=O)CCC4)CCCC3 (configuration not stated)
5. CCOC(=O)C(N)CSC(=O)NC (configuration not stated)

Ans.
["> 100 µM", "> 100 µM", "> 100 µM", "> 100 µM", "621 µM"]

Report TGI for every entry below.
1. COC(=O)[C@@H](NC(=O)[C@@H](OC)[C@@H]1Cc2cc3cc(OC4CC(OC5CC(O)C(O)C(C)O5)C(O)C(C)O4)c(C)c(O)c3c(O)c2C(=O)[C@H]1OC1CC(OC2CC(OC3CC(C)(O)C(O)C(C)O3)C(O)C(C)O2)C(O)C(C)O1)C(C)C (some centres not stated)
2. N#Cc1sc2nc(/C=C3/C=CC=CC3=O)c(O)n2c1N

Ans.
> 32.5 µM
> 100 µM

The reported numbers originate from PubChem BioAssay (NCI).
